- system name: C522T-mp97 (Mus musculus, UniProt Q01853, C522T)
- Sequence (Q01853 whole entry C522T): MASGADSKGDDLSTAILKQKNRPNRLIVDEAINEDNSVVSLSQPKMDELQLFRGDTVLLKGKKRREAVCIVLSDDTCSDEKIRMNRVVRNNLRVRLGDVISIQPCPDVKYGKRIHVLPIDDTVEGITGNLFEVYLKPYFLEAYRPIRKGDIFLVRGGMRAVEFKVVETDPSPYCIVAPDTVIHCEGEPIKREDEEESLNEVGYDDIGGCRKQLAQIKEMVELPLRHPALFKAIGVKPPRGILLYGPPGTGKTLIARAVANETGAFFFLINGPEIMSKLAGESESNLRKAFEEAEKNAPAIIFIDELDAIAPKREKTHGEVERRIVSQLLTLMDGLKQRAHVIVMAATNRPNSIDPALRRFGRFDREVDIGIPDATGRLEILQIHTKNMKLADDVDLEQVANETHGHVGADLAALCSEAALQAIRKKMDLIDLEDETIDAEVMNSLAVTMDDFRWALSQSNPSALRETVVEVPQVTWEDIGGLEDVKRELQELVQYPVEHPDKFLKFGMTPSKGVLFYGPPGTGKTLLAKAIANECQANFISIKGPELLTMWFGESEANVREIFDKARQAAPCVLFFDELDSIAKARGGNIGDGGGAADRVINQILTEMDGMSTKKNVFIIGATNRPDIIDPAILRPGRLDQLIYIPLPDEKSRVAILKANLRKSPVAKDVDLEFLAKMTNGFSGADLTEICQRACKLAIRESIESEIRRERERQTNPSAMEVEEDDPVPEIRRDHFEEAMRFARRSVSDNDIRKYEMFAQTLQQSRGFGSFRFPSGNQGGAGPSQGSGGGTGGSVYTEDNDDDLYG
- experiment description: In vitro ATP hydrolysis, C522T-mp97 mutant
- experimental context: 20-minute preincubation
assay metric: pIC50
// field semantics: pIC50 = negative decimal log of concentration (mol/L)

Measured pIC50, C=CC(=O)Nc1ncnc2c1c(-c1ccccc1)nn2C(C)(C)C [Compound 2] : 4.09

* * *

- system name: C522A-mp97 (Mus musculus, UniProt Q01853, C522A)
- Sequence (Q01853 whole entry C522A): as the sequence (Q01853 whole entry C522T) above, with T522A counted along it
- experiment description: In vitro ATP hydrolysis, C522A-mp97 mutant
- experimental context: 20-minute preincubation
assay metric: pIC50
// field semantics: pIC50 = negative decimal log of concentration (mol/L)

Measured pIC50, C=CC(=O)Nc1ncnc2c1c(-c1ccccc1)nn2C(C)(C)C [Compound 2] : 3.96

* * *

- system name: Human 19S ATPase
- Sequence (P17980 whole entry): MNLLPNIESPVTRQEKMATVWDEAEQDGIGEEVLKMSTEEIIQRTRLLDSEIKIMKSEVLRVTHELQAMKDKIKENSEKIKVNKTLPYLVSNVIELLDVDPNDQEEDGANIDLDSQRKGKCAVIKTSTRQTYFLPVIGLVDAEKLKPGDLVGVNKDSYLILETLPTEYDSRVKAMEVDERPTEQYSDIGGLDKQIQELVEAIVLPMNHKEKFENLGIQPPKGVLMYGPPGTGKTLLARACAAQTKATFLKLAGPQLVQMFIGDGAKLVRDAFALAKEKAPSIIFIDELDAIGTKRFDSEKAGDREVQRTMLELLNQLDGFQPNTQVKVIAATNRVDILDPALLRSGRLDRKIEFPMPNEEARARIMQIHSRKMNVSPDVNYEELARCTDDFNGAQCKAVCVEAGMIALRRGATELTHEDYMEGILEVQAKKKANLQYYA
- Sequence (P62333 whole entry, further chain): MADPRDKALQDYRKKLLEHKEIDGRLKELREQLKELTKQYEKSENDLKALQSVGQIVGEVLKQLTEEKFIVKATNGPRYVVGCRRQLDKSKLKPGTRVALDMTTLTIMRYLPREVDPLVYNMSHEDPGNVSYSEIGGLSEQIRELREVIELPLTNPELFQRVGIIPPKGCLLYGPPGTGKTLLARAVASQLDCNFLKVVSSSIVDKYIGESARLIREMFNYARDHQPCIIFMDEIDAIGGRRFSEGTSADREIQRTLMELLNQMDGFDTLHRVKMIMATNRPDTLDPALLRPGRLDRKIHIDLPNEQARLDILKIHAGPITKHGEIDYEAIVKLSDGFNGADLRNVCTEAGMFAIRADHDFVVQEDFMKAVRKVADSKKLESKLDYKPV
- Sequence (P62195 2-406, further chain): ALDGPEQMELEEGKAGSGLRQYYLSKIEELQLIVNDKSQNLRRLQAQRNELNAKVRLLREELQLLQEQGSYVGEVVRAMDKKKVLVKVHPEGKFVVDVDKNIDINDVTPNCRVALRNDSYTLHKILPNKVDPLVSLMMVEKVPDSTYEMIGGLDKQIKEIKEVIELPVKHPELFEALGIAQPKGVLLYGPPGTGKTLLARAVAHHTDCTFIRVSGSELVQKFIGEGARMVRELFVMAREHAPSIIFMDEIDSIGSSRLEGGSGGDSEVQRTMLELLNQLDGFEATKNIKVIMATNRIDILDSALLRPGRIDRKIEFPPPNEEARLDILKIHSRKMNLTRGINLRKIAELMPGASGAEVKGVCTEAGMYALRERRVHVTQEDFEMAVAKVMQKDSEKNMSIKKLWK
- Sequence (P35998 2-433, further chain): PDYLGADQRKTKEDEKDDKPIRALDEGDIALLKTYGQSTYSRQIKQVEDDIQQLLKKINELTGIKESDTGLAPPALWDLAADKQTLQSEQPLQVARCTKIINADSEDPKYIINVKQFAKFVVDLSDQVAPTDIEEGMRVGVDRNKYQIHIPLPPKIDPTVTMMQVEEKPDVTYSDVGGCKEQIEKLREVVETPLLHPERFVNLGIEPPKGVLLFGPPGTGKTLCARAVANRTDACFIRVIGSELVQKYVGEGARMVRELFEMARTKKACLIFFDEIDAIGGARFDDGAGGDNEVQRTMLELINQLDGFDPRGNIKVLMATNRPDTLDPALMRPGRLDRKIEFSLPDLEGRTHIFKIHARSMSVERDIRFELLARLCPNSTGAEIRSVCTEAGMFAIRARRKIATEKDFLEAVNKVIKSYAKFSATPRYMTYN
- Sequence (P62191 2-440, further chain): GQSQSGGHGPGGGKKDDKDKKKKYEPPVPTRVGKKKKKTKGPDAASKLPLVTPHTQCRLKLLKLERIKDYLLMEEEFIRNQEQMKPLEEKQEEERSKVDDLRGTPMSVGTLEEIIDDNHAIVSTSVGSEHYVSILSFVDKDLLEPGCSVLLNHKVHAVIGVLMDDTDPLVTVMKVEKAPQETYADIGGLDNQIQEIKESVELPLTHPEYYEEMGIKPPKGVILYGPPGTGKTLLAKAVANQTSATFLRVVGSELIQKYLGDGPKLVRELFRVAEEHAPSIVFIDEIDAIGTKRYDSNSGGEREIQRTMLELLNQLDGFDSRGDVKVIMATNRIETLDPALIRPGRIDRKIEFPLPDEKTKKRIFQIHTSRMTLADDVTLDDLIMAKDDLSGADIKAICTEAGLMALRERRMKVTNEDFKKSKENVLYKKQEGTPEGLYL
- Sequence (P43686 whole entry, further chain): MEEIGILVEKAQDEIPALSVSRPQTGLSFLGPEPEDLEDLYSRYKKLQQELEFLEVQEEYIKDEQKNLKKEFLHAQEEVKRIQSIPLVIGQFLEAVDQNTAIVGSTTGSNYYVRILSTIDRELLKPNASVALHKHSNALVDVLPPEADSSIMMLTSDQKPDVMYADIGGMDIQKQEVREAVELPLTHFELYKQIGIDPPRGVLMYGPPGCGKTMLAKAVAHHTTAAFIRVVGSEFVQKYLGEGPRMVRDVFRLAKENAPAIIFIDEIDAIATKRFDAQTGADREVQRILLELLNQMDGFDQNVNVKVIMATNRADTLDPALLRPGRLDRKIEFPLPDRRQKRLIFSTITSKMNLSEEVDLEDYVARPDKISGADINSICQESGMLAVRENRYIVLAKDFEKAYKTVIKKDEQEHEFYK
- experiment description: In vitro ATP hydrolysis, 19S ATPase of the 26S proteasome
- experimental context: 20-minute preincubation
- Experimental: To determine whether cysteine 522 is necessary for inhibition of p97 by compound 2, a mutant of p97 was constructed in which cysteine 522 was converted to either alanine (C522A-mp97) or threonine (C522T-mp97). The IC50 values of compound 2 were measured the against various enzymes during a 20-minute preincubation (see Table 2). Mutation of cysteine 522 in p97 to either alanine or threonine decreased sensitivity to compound 2 by greater than 100-fold. […]
assay metric: pIC50
// field semantics: pIC50 = negative decimal log of concentration (mol/L)

Summary: C=CC(=O)Nc1ncnc2c1c(-c1ccccc1)nn2C(C)(C)C , Human 19S ATPase, pIC50 = 4.12

* * *

The reader will find GI50 measurements below, all made with RPMI8226.
Numeric only. Scale: µM

Summary: CC(C)(C)n1nc(-c2ccccc2)c2c(N)ncnc21 , RPMI8226, GI50 = 1.1

Summary: C=CC(=O)N(C(=O)C=C)c1ncnc2c1c(-c1ccc3ccccc3c1)nn2C(C)(C)C , RPMI8226, GI50 = 3.4

Summary: C=CC(=O)N(C(=O)C=C)c1ncnc2c1c(-c1ccccc1)nn2C(C)(C)C , RPMI8226, GI50 = 1.2

Summary: C=CC(=O)Nc1ncnc2c1c(-c1ccc3ccccc3c1)nn2C(C)(C)C , RPMI8226, GI50 = 1.2

Summary: C=CC(=O)Nc1ncnc2c1c(-c1ccccc1)nn2C(C)(C)C , RPMI8226, GI50 = 0.4

Summary: CC(C)(C)n1nc(-c2ccc3ccccc3c2)c2c(N)ncnc21 , RPMI8226, GI50 = 9.8
